molecular target: KRAS (G12C)::SOS1 (Homo sapiens (Human), UniProt P01116, C118S/C51S/C80L/G12C); assay: KRAS::SOS1 AlphaScreen binding assay, KRAS G12C
Sequence (P01116 other isoform, or with tags, fused parts or gaps G12C/C51S/C80L/C118S): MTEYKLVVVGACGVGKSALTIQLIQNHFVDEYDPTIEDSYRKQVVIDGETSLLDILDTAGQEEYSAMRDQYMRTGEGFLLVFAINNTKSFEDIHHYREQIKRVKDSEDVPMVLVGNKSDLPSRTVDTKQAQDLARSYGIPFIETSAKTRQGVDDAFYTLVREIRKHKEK
pIC50: −log10 of the molar value.
observed_property: pIC50

>>> assay_result("C[C@H](Oc1cc(-n2ccc(C(=O)NC3COC3)n2)nc(-c2noc3c2CCC[C@@]32CCCc3sc(N)c(C#N)c32)n1)[C@@H]1CCCN1C")
9.00
>>> assay_result("C[C@H](Oc1cc([C@H]2CCOC2)nc(-c2noc3c2CCC[C@@]32CCCc3sc(N)c(C#N)c32)n1)[C@@H]1CCCN1C")
8.70
>>> assay_result("C[C@H](Oc1cc(-c2cn[nH]c2)nc(-c2noc3c2CCC[C@@]32CCCc3sc(N)c(C#N)c32)n1)[C@@H]1CCCN1C")
8.52
>>> assay_result("C[C@H]1CN(C)CCCN1c1cc(N2CCN(C)CC2)nc(-c2onc3c2CCC[C@@]32CCCc3sc(N)c(C#N)c32)n1")
7.64
>>> assay_result("CC(C)[C@@H]1CN(c2cc(O[C@@H](C)[C@@H]3CCCN3C)nc(-c3noc4c3CCC[C@@]43CCCc4sc(N)c(C#N)c43)n2)CCN1")
8.10
>>> assay_result("CNC(=O)c1ccn(-c2cc(O[C@@H](C)[C@@H]3CCCN3C)nc(-c3noc4c3CCC[C@@]43CCCc4sc(N)c(C#N)c43)n2)n1")
9.00
